measurement_name: melting point

• CC(=O)OC1CC2=CCC3C4CCCC4(C)CCC3C2(C)C(OC(C)=O)C1 (stereo not given) = 163 to 165 °C
• O=S(=O)(c1ccccc1)c1ccc2c(c1)OCCN2CCN1C=CNC1 = 61.5 to 64.4 °C
• Cc1cc(CCCOc2c(C)cc(-c3noc(C#N)n3)cc2C)on1 = 93 to 94 °C
• CC(C)(C)CNc1cc(Cl)nc(N2CCCC2)n1 = 130 to 135 °C
• Cc1cc(OCc2cnc(-c3ccc(OC(F)(F)F)cc3)nc2C(F)(F)F)ccc1OC(C)(C)C(=O)O = 154 °C
• CCOC(=O)C1=C(C=O)NC(C=O)=C(C(=O)OCC)C1c1ccccc1Cl = 85 to 86 °C
• COc1cc(C(=O)C(=O)O)cc([N+](=O)[O-])c1O = 165 to 167 °C
• Nc1ccc(S(=O)(=O)c2cc(C3=CCCCC3)nc(N3CCCC3)c2)cc1 = 237 to 238 °C
• Cc1nc2cc3c(cc2s1)C1(CO3)C(=O)N(CCC(C)C)c2ccccc21 (stereo not given) = 137 to 138 °C
• CCn1cc(C(=O)O)c(=O)c2ccc(-n3cccc3)cc21 = 235 to 238 °C

From: a melting point compilation (Tetko et al.; mined from patent text by program, amines drawn as free bases though some values may be those of a salt)
